assay.comment: Selectivity index, ratio of IC50 for rat L6 cells to IC50 for Trypanosoma brucei rhodesiense STIB900
Type: functional, cell-based
selectivity index less than 20 is condition met; selectivity index greater than or equal to 20 is condition not met.

structure.as.smiles | cat
O=C1C=C(Oc2ccc(F)cc2F)C(=O)c2ccccc21 | condition met
O=C1C=C(Oc2ccc(Cl)cc2F)C(=O)c2ccccc21 | condition met
O=C1C=C(Oc2ccc(Cl)cc2Cl)C(=O)c2ccccc21 | condition met

Prompt line: Confirm or reject: selectivity index of Cc1ccc(OC2=CC(=O)c3ccccc3C2=O)c(C)c1 lies strictly below 20
Response line: condition not met

Prompt line: Bench note: check whether O=C1C=C(Oc2ccc(Cl)cc2Cl)C(=O)c2cc3ccccc3cc21 shows selectivity index below 20
Response line: condition not met

Prompt line: Confirm or reject: selectivity index of O=C1C=C(Oc2ccc(F)cc2F)C(=O)c2cc3ccccc3cc21 lies strictly below 20
Response line: condition met

---

assay.comment: Selectivity index, ratio of IC50 for rat L6 cells to IC50 for Leishmania donovani MHOM-ET-67/L82
Type: functional, cell-based
Answer each item with its documented selectivity index.
Give bare numbers.

Reference set, count: 6
structure.as.smiles | selectivity index
O=C1C=C(Oc2ccc(Cl)cc2F)C(=O)c2cc3ccccc3cc21 | 5.01
O=C1C=C(Oc2ccc(Cl)cc2Cl)C(=O)c2ccccc21 | 3.94
O=C1C=C(Oc2ccccc2)C(=O)c2cc3ccccc3cc21 | 2.94
O=C1C=C(Oc2ccc(Cl)cc2F)C(=O)c2ccccc21 | 6.54
O=C1C=C(Oc2ccc(F)cc2Br)C(=O)c2ccccc21 | 2.58
O=C1C=C(Oc2ccc(F)cc2F)C(=O)c2cc3ccccc3cc21 | 7.01

Give selectivity index for each of the items listed below.
1. O=C1C=C(Oc2ccccc2)C(=O)c2ccccc21
2. Cc1ccc(OC2=CC(=O)c3ccccc3C2=O)c(C)c1
3. Cc1ccc(OC2=CC(=O)c3cc4ccccc4cc3C2=O)c(C)c1
4. Cc1ccc(OC2=CC(=O)c3cc4ccccc4cc3C2=O)cc1Br
5. O=C1C=C(Oc2ccc(Br)cc2Br)C(=O)c2cc3ccccc3cc21
6. Cc1ccc(OC2=CC(=O)c3ccccc3C2=O)cc1Br
7. O=C1C=C(Oc2ccc(F)cc2F)C(=O)c2ccccc21

Response line:
1. 4.69
2. 10.3
3. 7.53
4. 7.1
5. 4.71
6. 5.34
7. 2.41

---

assay.comment: Selectivity index, ratio of IC50 for rat L6 cells to IC50 for Trypanosoma brucei rhodesiense STIB900
Assay type: functional, cell-based
measured.parameter: selectivity index

structure.as.smiles | selectivity index
Cc1ccc(OC2=CC(=O)c3cc4ccccc4cc3C2=O)cc1Br | 17.4
O=C1C=C(Oc2ccccc2)C(=O)c2ccccc21 | 74
O=C1C=C(Oc2ccc(Br)cc2Br)C(=O)c2ccccc21 | 55.7

Continue with the compound presented below.
Prompt line: Entry Cc1ccc(OC2=CC(=O)c3cc4ccccc4cc3C2=O)c(C)c1 has what selectivity index?
Response line: 13.2
